B1: Poly(rC)-binding protein 1, residues 278 to 350; numbered along this chain, Q15365 (parent)
chain: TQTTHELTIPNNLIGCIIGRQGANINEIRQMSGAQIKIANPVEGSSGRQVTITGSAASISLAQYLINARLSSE

Variants of: B1
Assay: abundance fitness (aPCA) (normalised: wild type 0, dead -1); higher = more abundant; growth selection in yeast, the domain comes from the species named
Details: Homo sapiens
measured_metric: abundance fitness

> print(dat)
    variant.identifier  measurement
 1                G44H       -0.333
 2                E73W       -0.325
 3                I52K       -0.631
 4                N26V       -0.327
 5                G19K       -0.194
 6                R48D       -0.626
 7                I59E       -0.626
 8                G54H       -0.465
 9                L65V       -0.789
10                V50A       -0.639
11                Y64L       -0.031
12                Q21S        -0.09
13                M31Y       -0.056
14                I36P        -1.01
15                R20K        0.048
16                A68H        0.188
17                E43A       -0.249
18                V50F       -0.602
19                Q30D       -0.502
20                R69E       -0.371
21                A68N        0.163
22                Q35W        -0.21
